Where these numbers come from: ChEMBL document CHEMBL5360557

Could you please report measured IC50 for the items listed next?
- Tgt: Cholinesterase (Homo sapiens)
- Experiment Notes: Inhibition of recombinant human BuChE using butyrylthiocholine iodide as substrate preincubated with enzyme for 5 mins followed by substrate addition and measured after 1 min by Ellman's method
Answers are plain numbers, in nM.

Would you please look over these solved cases?
INSERT INTO measurements (compound_smiles, observed_result) VALUES
  ('C#CCOc1ccc(CCN(CC#C)Cc2cccc(OC)c2OCc2ccccc2)cc1', 200),
  ('CCCN(CCCc1cccc(O)c1)Cc1cccc(OC)c1OCc1ccccc1', 160),
  ('CCCN(CCCc1ccc(O)cc1)Cc1cccc(OC)c1OCc1ccccc1', 70),
  ('COc1cccc(CNCCc2ccc(O)cc2)c1OCc1ccccc1', 200),
  ('CCN(CCc1ccccc1)Cc1cccc(OC)c1OCc1ccccc1', 600);

Exam item: Requested field: IC50. Item: CCCN(CCc1ccc(OC)cc1)Cc1cccc(OC)c1OCc1ccccc1
Marked response: 1400

====

- Experiment Notes: Cytotoxicity against human HepG2 cells assessed as inhibition of cell growth incubated for 24 hrs by MTT assay
- Format: toxicity, cell-based
Reported Metric: IC50 at 24 h
Remember to put the unit after the number in your answer.

Completed entries (count: 2):
INSERT INTO results (compound, observed_result) VALUES
  ('CCCN(C/C=C/c1ccccc1)Cc1cccc(OC)c1OCc1ccccc1', '36 µM'),
  ('COc1ccc2c3c1O[C@H]1C[C@@H](O)C=C[C@@]31CCN(C)C2 [GALANTAMINE]', '4200 µM');

Attention now turns to another entry.
Exam item: Which measured IC50 at 24 h value corresponds to CCCN(CCCc1ccc(F)cc1)Cc1cccc(OC)c1OCc1ccccc1 ?
Marked response: 32 µM

====

- Tgt: Cholinesterase (Homo sapiens)
- Experiment Notes: Inhibition of recombinant human BuChE using butyrylthiocholine iodide as substrate preincubated with enzyme for 5 mins followed by substrate addition and measured after 1 min by Ellman's method
Reported Metric: pIC50
Answers are plain numbers, as −log10 of the molar value.

For every item in the list below, what is its measured pIC50?
1. C=CCN(CCc1ccc(O)cc1)Cc1cccc(OC)c1OCc1ccccc1
2. COc1ccc(CCNCc2cccc(OC)c2OCc2ccccc2)cc1
3. CCCN(CCCc1ccc(F)cc1)Cc1cccc(OC)c1OCc1ccccc1
4. CCN(CCc1ccc(O)cc1)Cc1cccc(OC)c1OCc1ccccc1
5. C=CCOc1ccc(CCN(CC=C)Cc2cccc(OC)c2OCc2ccccc2)cc1

Marked response:
1. 6.52
2. 6.40
3. 7.00
4. 6.52
5. 5.89

Need pIC50 for each of these molecules.
1. C#CCN(CCCc1ccccc1)Cc1cccc(OC)c1OCc1ccccc1
2. COc1cccc(CNCCc2ccccc2)c1OCc1ccccc1

Marked response:
6.64
6.40

====

- Experiment Notes: Cytotoxicity against human SH-SY5Y cells assessed as inhibition of cell growth incubated for 24 hrs by MTT assay
- Format: toxicity, cell-based
Reported Metric: IC50 at 24 h (µM)
One number for each entry, in µM.

Consider the worked cases shown below.
INSERT INTO assay_data (compound_smiles, reported_metric, observed_result) VALUES
  ('CCCN(C/C=C/c1ccccc1)Cc1cccc(OC)c1OCc1ccccc1', 'IC50 at 24 h', 174),
  ('CCCN(CCCc1ccccc1F)Cc1cccc(OC)c1OCc1ccccc1', 'IC50 at 24 h', 49),
  ('CCCCCCN(CCCc1ccccc1)Cc1cccc(OC)c1OCc1ccccc1', 'IC50 at 24 h', 110),
  ('C=CCCN(CCCc1ccccc1)Cc1cccc(OC)c1OCc1ccccc1', 'IC50 at 24 h', 131);

Now turn to the next compound.
Exam item: Which IC50 at 24 h is listed for CCN(CCCc1ccccc1)Cc1cccc(OC)c1OCc1ccccc1 ?
Marked response: 34

====

Exercise: for every item that follows, state its recorded inhibition.
- Tgt: Cholinesterase (Homo sapiens, UniProt P06276)
- Sequence (P06276 whole entry): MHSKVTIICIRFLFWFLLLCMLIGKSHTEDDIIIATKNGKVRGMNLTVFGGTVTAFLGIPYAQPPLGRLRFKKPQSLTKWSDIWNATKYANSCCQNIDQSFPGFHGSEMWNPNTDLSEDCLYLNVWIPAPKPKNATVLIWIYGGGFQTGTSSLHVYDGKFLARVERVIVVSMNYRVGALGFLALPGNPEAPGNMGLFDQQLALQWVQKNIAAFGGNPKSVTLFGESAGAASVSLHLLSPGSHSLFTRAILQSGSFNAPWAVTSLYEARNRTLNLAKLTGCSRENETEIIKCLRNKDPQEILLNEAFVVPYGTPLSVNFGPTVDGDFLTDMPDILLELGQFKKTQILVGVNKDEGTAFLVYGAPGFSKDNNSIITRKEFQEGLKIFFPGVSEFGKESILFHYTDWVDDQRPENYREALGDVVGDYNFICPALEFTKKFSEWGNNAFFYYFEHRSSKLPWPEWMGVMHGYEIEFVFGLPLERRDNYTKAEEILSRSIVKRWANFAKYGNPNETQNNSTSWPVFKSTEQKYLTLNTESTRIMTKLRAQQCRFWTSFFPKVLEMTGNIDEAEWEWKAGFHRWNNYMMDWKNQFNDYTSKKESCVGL
- Experiment Notes: Inhibition of recombinant human BuChE using butyrylthiocholine iodide as substrate at 10 uM preincubated with enzyme for 5 mins followed by substrate addition and measured after 1 min by Ellman's method relative to control
- Condition: time 6.0 min
Give bare numbers, in %.

Worked set:
INSERT INTO assay_data (compound, observed_result) VALUES
  ('C=CCN(CCc1cccc(OC)c1)Cc1cccc(OC)c1OCc1ccccc1', 76),
  ('COc1cccc(CN(CCCCc2ccccc2)CCCC(C)C)c1OCc1ccccc1', 87),
  ('CCOc1ccc(CCN(CC)Cc2cccc(OC)c2OCc2ccccc2)cc1', 84),
  ('C#CCN(CCCc1ccccc1)Cc1cccc(OC)c1OCc1ccccc1', 76),
  ('COc1ccccc1CCNCc1cccc(OC)c1OCc1ccccc1', 88),
  ('CCCN(CCc1cccc(OC)c1)Cc1cccc(OC)c1OCc1ccccc1', 89);

Return reported inhibition values for all items listed beneath this line.
1. CCCN(CCc1ccc(O)cc1)Cc1cccc(OC)c1OCc1ccccc1
2. CCN(CCc1ccccc1OC)Cc1cccc(OC)c1OCc1ccccc1
3. COc1cccc(CNCCCc2ccccc2)c1OCc1ccccc1

Marked response:
[95, 94, 97]

Required: inhibition, one value per compound below.
1. COc1cccc(CN(CCCc2ccccc2F)C2CCC2)c1OCc1ccccc1
2. COc1cccc(CNCC(C)c2ccccc2)c1OCc1ccccc1 (stereo unspecified)

Marked response:
1. 99
2. 96

====

- Experiment Notes: in vitro
- Condition: PAMPA
- Description: Permeability of the compound incubated for 3 to 6 hrs by PAMPA-BBB assay
Assignment: determine reported Papp for the given compounds.
Numbers only, in ×10⁻⁶ cm/s.

// below: answered compounds
INSERT INTO results (compound_smiles, reported_metric, observed_result) VALUES
  ('CCCCCCN(CCCc1ccccc1)Cc1cccc(OC)c1OCc1ccccc1', 'Papp', 9),
  ('COc1cccc(CN(CCCc2ccccc2F)C2CCC2)c1OCc1ccccc1', 'Papp', 60);

Take each entry in turn and give its Papp.
1. CCCN(CCCc1cccc(F)c1)Cc1cccc(OC)c1OCc1ccccc1
2. C=CCCN(CCCc1ccccc1)Cc1cccc(OC)c1OCc1ccccc1

Marked response:
1: 27; 2: 33

====

- Tgt: Cholinesterase (Homo sapiens)
- Experiment Notes: Inhibition of recombinant human BuChE using butyrylthiocholine iodide as substrate at 10 uM preincubated with enzyme for 5 mins followed by substrate addition and measured after 1 min by Ellman's method relative to control
- Condition: time 6.0 min
Reported Metric: inhibition (%)
Numbers only, in %.

For each listed entry, give its inhibition.
1. CCCN(CCCc1cccc(F)c1)Cc1cccc(OC)c1OCc1ccccc1
2. C=CCN(CCc1ccc(O)cc1)Cc1cccc(OC)c1OCc1ccccc1
3. COc1cccc(CCNCc2cccc(OC)c2OCc2ccccc2)c1
4. COc1cccc(CNCCCCc2ccccc2)c1OCc1ccccc1

Marked response:
1. 97
2. 96
3. 77
4. 94

====

- Experiment Notes: in vitro
- Condition: PAMPA
Hi there, I'd appreciate the recorded Papp for every entry that follows.
Numbers only, in ×10⁻⁶ cm/s.

Worked cases, Papp given:
INSERT INTO assay_data (compound_smiles, observed_result) VALUES
  ('CO/N=C(\C(=O)N[C@@H]1C(=O)N2C(C(=O)O)=C(COC(N)=O)CS[C@H]12)c1ccco1', 0.6),
  ('COc1cccc(CNCCCc2ccccc2)c1OCc1ccccc1', 21),
  ('CCCN(C/C=C/c1ccccc1)Cc1cccc(OC)c1OCc1ccccc1', 41),
  ('CCCN(CCCc1ccccc1)Cc1cccc(OC)c1OCc1ccccc1', 32),
  ('CCCN(CCc1ccc(O)cc1)Cc1cccc(OC)c1OCc1ccccc1', 14),
  ('COc1cccc(CN(CCCc2ccccc2F)C2CCCC2)c1OCc1ccccc1', 61),
  ('C=CCN(CCCc1ccccc1)Cc1cccc(OC)c1OCc1ccccc1', 28),
  ('COc1cccc(CNCCc2ccc(O)cc2)c1OCc1ccccc1', 19),
  ('CCCN(CCCc1ccccc1F)Cc1cccc(OC)c1OCc1ccccc1', 85),
  ('CCCN(CCCc1ccc(F)cc1)Cc1cccc(OC)c1OCc1ccccc1', 61);

Exam item: // query Papp value for entry CCCN(CCCc1ccc(O)cc1)Cc1cccc(OC)c1OCc1ccccc1
Marked response: 16

====

Would you mind telling me the reported IC50 at 24 h of each entry?
- Experiment Notes: Cytotoxicity against human SH-SY5Y cells assessed as inhibition of cell growth incubated for 24 hrs by MTT assay
- Assay type: toxicity, cell-based
Answers are plain numbers, in µM.

These recorded examples may help you get a feel for the data.
INSERT INTO assay_data (compound_smiles, value_units, observed_result) VALUES
  ('COc1cccc(CNCCCc2ccccc2)c1OCc1ccccc1', 'µM', 8.9),
  ('COc1cccc(CN(CCCc2ccccc2F)C2CCC2)c1OCc1ccccc1', 'µM', 87),
  ('CCCN(CCCc1ccc(O)cc1)Cc1cccc(OC)c1OCc1ccccc1', 'µM', 44),
  ('COc1ccc2c3c1O[C@H]1C[C@@H](O)C=C[C@@]31CCN(C)C2', 'µM', 4700),
  ('COc1cccc(CN(CCCc2ccccc2F)C2CCCC2)c1OCc1ccccc1', 'µM', 55);

Would you mind giving IC50 at 24 h for every compound in the list below?
1. CCCN(CCCc1ccc(F)cc1)Cc1cccc(OC)c1OCc1ccccc1
2. CCCN(CCCc1cccc(F)c1)Cc1cccc(OC)c1OCc1ccccc1
3. CCCN(CCc1ccc(O)cc1)Cc1cccc(OC)c1OCc1ccccc1

Marked response:
1. 170
2. 123
3. 44
